# targetOrTestSystem: Gal(b1-4)GlcNAc(b1-2)Man(a1-3)[GlcNAc(b1-4)][Gal(b1-4)GlcNAc(b1-2)Man(a1-6)]Man(b1-4)GlcNAc(b1-4)GlcNAc
# methodNotes: glycan array binding signal (z-score within array); higher = stronger binding
# cond: glycan notation: IUPAC condensed, linker removed
This excerpt belongs to a sample that is enriched for the strongest signals.
For each record, write down the corresponding glycan array binding signal (z-score).
Quick one: just the number, no unit, thanks!

Recorded glycan array binding signal (z-score) for HPAIIITrx (Helix pomatia), Q1KM18 (protein) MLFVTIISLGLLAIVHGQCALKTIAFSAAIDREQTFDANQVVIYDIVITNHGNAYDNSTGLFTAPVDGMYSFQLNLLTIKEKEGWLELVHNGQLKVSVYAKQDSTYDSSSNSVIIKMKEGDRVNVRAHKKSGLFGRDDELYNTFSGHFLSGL , please?
-0.402

Recorded glycan array binding signal (z-score) for SP8524D-bot-399-27-399 (Bacteroides ovatus) (protein) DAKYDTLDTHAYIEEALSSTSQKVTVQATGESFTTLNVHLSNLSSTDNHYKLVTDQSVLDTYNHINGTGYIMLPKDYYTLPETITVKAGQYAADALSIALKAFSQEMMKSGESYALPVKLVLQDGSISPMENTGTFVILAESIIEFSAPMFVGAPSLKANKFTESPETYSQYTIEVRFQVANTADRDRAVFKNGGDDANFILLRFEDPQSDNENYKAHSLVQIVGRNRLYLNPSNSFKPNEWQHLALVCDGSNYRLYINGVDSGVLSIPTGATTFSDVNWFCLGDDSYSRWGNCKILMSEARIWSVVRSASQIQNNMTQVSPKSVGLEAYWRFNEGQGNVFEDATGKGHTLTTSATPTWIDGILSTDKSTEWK , please?
-0.382
